Value source: patent US10414774B2

# tgt: Human CYP8B1 (Homo sapiens)
# Sequence (Q9UNU6 whole entry): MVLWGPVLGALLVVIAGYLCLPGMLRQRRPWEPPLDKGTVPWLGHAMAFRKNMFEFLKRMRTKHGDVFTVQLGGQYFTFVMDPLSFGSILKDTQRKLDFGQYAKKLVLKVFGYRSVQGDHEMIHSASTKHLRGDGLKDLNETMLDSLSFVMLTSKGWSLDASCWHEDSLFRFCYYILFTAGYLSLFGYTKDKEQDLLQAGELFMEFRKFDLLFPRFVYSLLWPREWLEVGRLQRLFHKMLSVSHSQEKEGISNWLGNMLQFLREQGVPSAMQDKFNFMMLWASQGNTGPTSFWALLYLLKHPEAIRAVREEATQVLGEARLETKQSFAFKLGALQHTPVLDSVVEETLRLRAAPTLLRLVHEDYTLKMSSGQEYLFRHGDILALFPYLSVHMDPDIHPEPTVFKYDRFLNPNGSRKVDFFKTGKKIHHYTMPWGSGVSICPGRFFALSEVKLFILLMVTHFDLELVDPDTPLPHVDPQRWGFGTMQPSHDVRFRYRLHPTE
# protocol: Human CYP8B1 Liver Microsome Assay
# conditions.used: Human CYP8B1 IC50, human liver microsomes; substrate 7a-hydroxy-4-cholesten-3-one, NADPH; RapidFire MS detection of 7α,12α-dihydroxy-4-cholesten-3-one
Response field label: string, one of true (IC50 strictly below 40 nM) or false.

[
  {
    "compound": "C[C@@H]1CN(c2c(C#N)cnc3cc(OC(F)F)ccc23)CC[C@@H]1C(=O)N1CCn2c(nnc2C(F)(F)F)C1 [Example 62]",
    "classification": "true"
  },
  {
    "compound": "N#Cc1cnc2ccc(Cl)cc2c1N1CCC(C(=O)N2CCn3cc(C(F)(F)F)nc3C2)CC1 [Example 104]",
    "classification": "false"
  },
  {
    "compound": "COc1ccc2c(N3CC[C@@H](C(=O)N4CCn5c(nnc5C(F)(F)F)C4)[C@@H](C4CC4)C3)c(C#N)cnc2c1F [Example 77a]",
    "classification": "false"
  },
  {
    "compound": "COc1ccc2c(N3CC[C@H](C(=O)N4Cc5nnc(C(F)(F)F)n5C(C)(C)C4)[C@H](C)C3)c(C#N)cnc2c1F [Example 82]",
    "classification": "false"
  },
  {
    "compound": "COc1nc2ccc(Cl)cc2c(N2CCC(C(=O)N3CCn4c(nnc4C(F)(F)F)C3)C(C)C2)c1C#N (centres unmarked) [Example 126]",
    "classification": "false"
  },
  {
    "compound": "C[C@@H]1CN(c2c(C#N)cnc3c(C(F)F)cc(Cl)cc23)CC[C@@H]1C(=O)N1CCn2c(nnc2C(F)(F)F)C1 [Example 3]",
    "classification": "true"
  },
  {
    "compound": "C[C@@H]1CN(c2c(C#N)cnc3cc(C(F)(F)F)ccc23)CC[C@@H]1C(=O)N1CCn2c(nnc2C(F)(F)F)C1 [Example 24]",
    "classification": "true"
  },
  {
    "compound": "COc1ccc2nc(C)c(C#N)c(N3CCC(C(=O)N4CCn5c(nnc5C(F)(F)F)C4)CC3)c2c1 [Example 47]",
    "classification": "false"
  },
  {
    "compound": "C[C@@H]1CN(c2c(C#N)cnc3cc(F)c(F)cc23)CC[C@@H]1C(=O)N1CCn2c(nnc2C(F)(F)F)C1 [Example 25]",
    "classification": "true"
  },
  {
    "compound": "Cc1nc2ccc(Cl)cc2c(N2CC[C@H](C(=O)N3CCn4cccc4C3)[C@H](C)C2)c1C#N [Example 91]",
    "classification": "true"
  },
  {
    "compound": "N#Cc1cnc2c(F)c(Cl)ccc2c1N1CCC(C(=O)N2CCn3c(nnc3C(F)(F)F)C2)CC1 [Example 41]",
    "classification": "false"
  },
  {
    "compound": "CC1CC(C(=O)N2CCn3c(nnc3C(F)(F)F)C2)CCN1c1c(C#N)cnc2ccc(Cl)cc12 (single isomer, unassigned) [Example 73a]",
    "classification": "true"
  },
  {
    "compound": "CC(C)c1ncc2n1CCN(C(=O)C1CCN(c3c(C#N)cnc4ccc(Cl)cc34)CC1)C2 [Example 115]",
    "classification": "false"
  },
  {
    "compound": "N#Cc1cnc2ccc(Cl)cc2c1N1CCN(C(=O)N2CCn3c(nnc3C(F)(F)F)C2)C2(CC2)C1 [Example 127]",
    "classification": "false"
  }
]
